System under test: histone deacetylase, subtype 1 (HDAC1) (Homo sapiens, UniProt Q13547)
Construct: Flag; made in house
Sequence (Q13547 whole entry): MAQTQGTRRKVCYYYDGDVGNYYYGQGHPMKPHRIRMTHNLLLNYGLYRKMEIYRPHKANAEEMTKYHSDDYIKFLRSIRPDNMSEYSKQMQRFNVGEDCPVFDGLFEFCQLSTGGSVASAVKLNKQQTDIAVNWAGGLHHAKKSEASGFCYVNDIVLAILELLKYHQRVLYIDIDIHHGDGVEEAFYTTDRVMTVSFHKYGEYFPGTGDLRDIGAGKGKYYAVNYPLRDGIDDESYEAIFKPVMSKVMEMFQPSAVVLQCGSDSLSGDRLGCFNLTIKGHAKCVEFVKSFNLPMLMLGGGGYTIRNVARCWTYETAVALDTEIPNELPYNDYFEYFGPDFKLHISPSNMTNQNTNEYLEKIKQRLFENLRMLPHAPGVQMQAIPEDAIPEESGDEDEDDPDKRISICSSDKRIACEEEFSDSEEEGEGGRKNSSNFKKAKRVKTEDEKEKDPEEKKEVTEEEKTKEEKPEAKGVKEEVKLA
Test name: HDAC1-Flag assay (in vitro deacetylation assay)
Format: biochemical
Assay setup: Table 1, benzothiophene backbone; concentration for 50% inhibition of deacetylation; substrate at Km; unit inferred, text gives nm; read-out: HDAC Inhibition
Measurement type: IC50 (nM)

Past entries and their recorded results:
Molecule	System under test	IC50 (nM)
O=C(CN1CCN(c2cccc(Cl)c2)CC1)Nc1ccc2cc(C(=O)NO)sc2c1	histone deacetylase, subtype 1 (HDAC1) (Homo sapiens, UniProt Q13547)	97
O=C(NO)c1cc2cc(CNCc3ccccc3Cl)ccc2s1	histone deacetylase, subtype 1 (HDAC1) (Homo sapiens, UniProt Q13547)	96.5
Cc1ccc(S(=O)(=O)Nc2ccc3sc(C(=O)NO)cc3c2)cc1	histone deacetylase, subtype 1 (HDAC1) (Homo sapiens, UniProt Q13547)	162
O=C(NO)c1cc2ccc(NC(=O)C(c3ccccc3)c3ccccc3)cc2s1	histone deacetylase, subtype 1 (HDAC1) (Homo sapiens, UniProt Q13547)	79.5
O=C(NO)c1cc2cc(NS(=O)(=O)Cc3ccccc3)ccc2s1	histone deacetylase, subtype 1 (HDAC1) (Homo sapiens, UniProt Q13547)	119
O=C(NCCCCc1ccccc1)c1ccc2sc(C(=O)NO)cc2c1	histone deacetylase, subtype 1 (HDAC1) (Homo sapiens, UniProt Q13547)	154

I: O=C(NO)c1cc2ccc(NS(=O)(=O)c3ccc4ccccc4c3)cc2s1
II: O=C(NO)c1cc2ccccc2s1
III: CN(O)C(=O)c1cc2ccc(N(C)C(=O)Cc3ccccc3)cc2s1
IV: CC(=O)N1CCN(CC(=O)Nc2ccc3cc(C(=O)NO)sc3c2)CC1
V: O=C(Cc1ccccn1)Nc1ccc2cc(C(=O)NO)sc2c1
Enquiry: Order the records, beginning with the lowest IC50 and ending with the highest. In your reply, arrange the labels in the requested order.
Return: I, V, IV, II, III

I: O=C(NO)c1cc2cc(N(Cc3ccccc3)Cc3ccccc3)ccc2s1 [Compound 21]
II: COc1ccc(CNCc2ccc3cc(C(=O)NO)sc3c2)cc1
Enquiry: Sorting by IC50 in descending order, would I or II appear first? Which one? Tell me its label.
Return: I
(I: 949 nM, II: 23 nM)

P: O=C(NCc1ccccc1)Nc1ccc2cc(C(=O)NO)sc2c1
Q: O=C(Cc1ccc(Cl)cc1)Nc1ccc2sc(C(=O)NO)cc2c1
R: COc1ccc(N2CCN(CC(=O)Nc3ccc4cc(C(=O)NO)sc4c3)CC2)cc1
Enquiry: Order the records, beginning with the lowest IC50 and ending with the highest. In your reply, arrange the labels in the requested order.
Return: P, Q, R
(P: 52 nM, Q: 79.5 nM, R: 177 nM)

a: COc1ccc(OC)c(CC(=O)Nc2ccc3sc(C(=O)NO)cc3c2)c1
b: CCC(C(=O)Nc1ccc2cc(C(=O)NO)sc2c1)c1ccccc1 (stereo not drawn) [Compound 181]
Enquiry: Problem: Given the entries a and b , determine which has the lower reported IC50. Which one? Tell me its label.
Return: b
(b: 59.5 nM, a: 111 nM)

A: O=C(NCc1cccc(Cl)c1)c1ccc2sc(C(=O)NO)cc2c1
B: O=C(NO)c1cc2ccc(C(=O)N3CCN(Cc4ccccc4)CC3)cc2s1
Enquiry: Problem: Given the entries A and B , determine which has the lower reported IC50. Which one? Tell me its label.
Return: A

I: O=C(Nc1ccc2cc(C(=O)NO)sc2c1)OCc1ccccc1
II: O=C(NO)c1cc2ccc(NC(=O)c3cccc4ccccc34)cc2s1
III: O=C(CN1CCc2ccccc2C1)Nc1ccc2cc(C(=O)NO)sc2c1
IV: O=C(Nc1ccccc1)c1ccc2sc(C(=O)NO)cc2c1
V: CCC(C(=O)Nc1ccc2cc(C(=O)NO)sc2c1)c1ccccc1 (stereo not drawn) [Compound 98]
Enquiry: // ranking: key=IC50, reverse=True In your reply, arrange the labels in the requested order.
Return: IV, I, II, V, III

P: CCC(C(=O)Nc1ccc2cc(C(=O)NO)sc2c1)c1ccccc1 (stereo not drawn) [Compound 180]
Q: O=C(NO)c1cc2ccc(C(=O)N3CCCCC3)cc2s1
Enquiry: Sorting by IC50 in descending order, would P or Q appear first? Which one? Tell me its label.
Return: Q

I: CCOC(=O)N1CCN(CC(=O)Nc2ccc3cc(C(=O)NO)sc3c2)CC1
II: COc1cccc(CNCc2ccc3sc(C(=O)NO)cc3c2)c1
Enquiry: Problem: Given the entries I and II , determine which has the lower reported IC50. Which one? Tell me its label.
Return: II
(II: 100 nM, I: 163 nM)
